- Test system: α-chymotrypsin
- EXPERIMENT SUMMARY: Serum stability assay: incubation with α‐chymotrypsin
- Format: in vitro ADME
- ASSAY CONTEXT: α-chymotrypsin (0.5 μg/mL) in PBS, α-chymotrypsin 0.5 μg mL−1 in PBS, peptide 0.3 mM from DMSO stock, RT, HPLC 220 nm vs caffeine internal standard, duplicate, read-out: peptide remaining intact after 6 h of incubation with α‐chymotrypsin
ENDPOINT LABEL: remaining at 6 h, 0.3 mM (%)
# output: bare number, implied unit %

MOLECULE	remaining at 6 h, 0.3 mM / %
CC(=O)N[C@@H](CCC(=O)O)C(=O)N[C@H](C(=O)N[C@@H](Cc1ccccc1)C(=O)N[C@@]1(C)CCCC=CCCC[C@H](OC(=O)[C@@H](N)CCCCN)c2cn(nn2)CC[C@@H](C(=O)N[C@@H](CCC(=O)O)C(=O)N[C@@H](CC(N)=O)C(N)=O)NC(=O)[C@H](CC(C)C)NC(=O)[C@H](CC(C)C)NC(=O)[C@H](CCCNC(=N)N)NC(=O)[C@H](Cc2c[nH]c3ccccc23)NC(=O)[C@H](CC(C)C)NC(=O)[C@H](CC(=O)O)NC1=O)[C@@H](C)O [SP1 (A)]	82

Task: Check α-chymotrypsin data and give remaining at 6 h, 0.3 mM for C=CCCC[C@](C)(NC(=O)[C@H](Cc1ccccc1)NC(=O)[C@@H](NC(=O)[C@H](CCC(=O)O)NC(C)=O)[C@@H](C)O)C(=O)N[C@@H](CC(=O)O)C(=O)N[C@@H](CC(C)C)C(=O)N[C@@H](Cc1c[nH]c2ccccc12)C(=O)N[C@@H](CCCNC(=N)N)C(=O)N[C@@H](CC(C)C)C(=O)N[C@@H](CC(C)C)C(=O)N[C@@H](CCN=[N+]=[N-])C(=O)N[C@@H](CCC(=O)O)C(=O)N[C@@H](CC(N)=O)C(N)=O [SP0] .
Result: 17

###

- EXPERIMENT SUMMARY: Circular dichroism helicity
- Assay type: physicochemical
- ASSAY CONTEXT: CD, MRE222 vs theoretical maximum; PBS (50 mM)/acetonitrile 95:5, pH 7.4, 20 °C; average of three scans
ENDPOINT LABEL: Helicity (%)
# output: bare number, implied unit %

COMPOUND	RESULT UNITS	Helicity
CC(=O)N[C@@H](CCC(=O)O)C(=O)N[C@H](C(=O)N[C@@H](Cc1ccccc1)C(=O)N[C@@]1(C)CCCC=CCCC[C@H](OC(=O)[C@H](CCCCN)NC(=O)[C@@H](N)CCCCN)c2cn(nn2)CC[C@@H](C(=O)N[C@@H](CCC(=O)O)C(=O)N[C@@H](CC(N)=O)C(N)=O)NC(=O)[C@H](CC(C)C)NC(=O)[C@H](CC(C)C)NC(=O)[C@H](CCCNC(=N)N)NC(=O)[C@H](Cc2c[nH]c3ccccc23)NC(=O)[C@H](CC(C)C)NC(=O)[C@H](CC(=O)O)NC1=O)[C@@H](C)O [SP1‐K (B)]	%	31

Task: Write down Helicity measured for item CC(=O)N[C@@H](CCC(=O)O)C(=O)N[C@H](C(=O)N[C@@H](Cc1ccccc1)C(=O)N[C@@]1(C)CCCC=CCCC[C@@H](OC(=O)[C@@H](N)CCCCN)c2cn(nn2)CC[C@@H](C(=O)N[C@@H](CCC(=O)O)C(=O)N[C@@H](CC(N)=O)C(N)=O)NC(=O)[C@H](CC(C)C)NC(=O)[C@H](CC(C)C)NC(=O)[C@H](CCCNC(=N)N)NC(=O)[C@H](Cc2c[nH]c3ccccc23)NC(=O)[C@H](CC(C)C)NC(=O)[C@H](CC(=O)O)NC1=O)[C@@H](C)O [SP2 (B)]
Result: 35
